# target_desc: recombinant human GST-Syk (Homo sapiens (Human), UniProt P43405)
# procedure_text: Homogeneous Time-Resolved Fluorescence (HTRF) assay for the recombinant human Syk enzyme
# Assay type: biochemical
# assay_setup: recombinant human GST-Syk 5 pM, ATP 25 μM, read-out: rhSyk IC50
measured_attribute: IC50 (nM)
Please state the figure in nM; there is no need to write the unit.

Quick one: IC50 of Cc1cc(Nc2cc(C(F)(F)F)ccn2)nc(-c2ccc(NC3CCN(C(=O)c4cccc5c4Cc4ccccc4-5)CC3)nc2)c1 [Example 4-54] ? 149

Another molecule to check: COC(=O)[C@H]1CC[C@H](C(C)(O)c2ccc(-c3cc(C)cc(Nc4cc(C(F)F)ccn4)n3)cn2)CC1 (single isomer, unassigned) [Example 22] 8

// repeat for Cc1cc(Nc2cc(C(F)F)ccn2)nc(-c2ccc(C3(O)CCC3)nc2)c1 [Example 1-13] and report 5

Repeat for the following molecule: Cc1cc(Nc2cc(C(F)(F)F)ccn2)nc(-c2ccc(NC3CCNC3=O)nc2)c1 (stereo not shown) [Example 2-16] 6
